# tested_system: APE1 (Homo sapiens, UniProt P27695)
# Construct: made in house
# Sequence (P27695 whole entry): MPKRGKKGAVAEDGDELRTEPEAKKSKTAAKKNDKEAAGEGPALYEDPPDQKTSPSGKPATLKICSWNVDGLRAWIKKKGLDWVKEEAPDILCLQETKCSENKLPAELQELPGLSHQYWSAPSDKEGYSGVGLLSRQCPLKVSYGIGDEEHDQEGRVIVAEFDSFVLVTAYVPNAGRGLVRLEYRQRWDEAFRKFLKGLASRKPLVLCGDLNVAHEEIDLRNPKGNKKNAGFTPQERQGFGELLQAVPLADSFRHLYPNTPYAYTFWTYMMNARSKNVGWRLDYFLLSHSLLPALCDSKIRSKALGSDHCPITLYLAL
# protocol_description: Fluorogenic kinetic qHTS APE1 incision assay (primary screen and retest of cherrypicked samples)
# Format: biochemical
# condition_notes: retest of cherrypicked sample; read-out: APE1 Retest IC50
assay_endpoint: IC50 (µM)
Give your result in µM as a bare value.

Would you please look over these solved cases?
> print(dat)
                                   compound  unit.of.measurement  result.number
1  COc1ccc(S(=O)(=O)N2CCN(C(=O)c3cc4c(s3)CCC4)CC2)cc1                   µM            8.1
2  Cc1ccc(NC(=O)CN(C)C(=O)c2cc(-c3ccco3)nc3ccccc23)cc1                   µM           22.9
3  Cc1ccc(NC(=O)C(c2ccccc2)N2CCN(CC(=O)N3CCOCC3)CC2)cc1Cl (centres unmarked)                   µM            9.1
4  Cc1ccc(NC(=O)CN2C(=O)S/C(=C\c3cccn3-c3cccc(C(=O)O)c3)C2=O)c(C)c1                   µM           12.6

Exercise: Indicate its recorded IC50; the compound in question is O=C(CCc1n[nH]c(=O)[nH]c1=O)N/N=C/c1ccco1
Solution: 12.6

Exercise: Indicate its recorded IC50; the compound in question is CCC(C)C(=O)OCC1(c2ccc(C)cc2OC(=O)C(C)C)CO1 (centres unmarked)
Solution: 11.2

Exercise: Indicate its recorded IC50; the compound in question is CCOC(=O)c1cc(-c2ccc(/C=C3/C(=O)N(c4ccc(C(=O)O)cc4)N=C3C)o2)ccc1Cl
Solution: 25.7

Exercise: Indicate its recorded IC50; the compound in question is O=C(C[C@@H]1C/C=C\C[C@H](NC(=O)OCC2c3ccccc3-c3ccccc32)C(=O)OC[C@@H]2CCCN2C1=O)NCCO
Solution: 10.2

====

# tested_system: APE1 (Homo sapiens)
# Construct: made in house
# protocol_description: Fluorogenic kinetic qHTS APE1 incision assay (primary screen and retest of cherrypicked samples);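 further: purified APE1 cleaving a fluorophore/dark-quencher labelled 17-mer duplex DNA bearing a tetrahydrofuran AP site, fluorescence rise followed kinetically over the first 2 min, inhibition normalized to controls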
# Format: biochemical
# condition_notes: retest of cherrypicked sample; read-out: APE1 Retest IC50
pIC50: −log10 of the molar value.
Label scheme for pIC50: lower than 5 is No, 5 and above is Yes.

Worked examples, 2 compounds total:
compound	cat
O=C1CC(=O)N(Cc2ccco2)C(=O)N1 [MLS000062734]	Yes
O=C(O)c1ccc(-n2cccc2/C=C2/NC(=O)N(c3cccc(Cl)c3)C2=O)cc1 [MLS000621695]	Yes

Exercise: Threshold query (pIC50 >= 5) on O=c1oc2c(cc1O)oc(=O)c1cc(O)c(O)c(O)c12 [MLS000737267, galloflavin]
Solution: Yes

Exercise: Threshold query (pIC50 >= 5) on O=C(/C=C/c1ccco1)NCc1ccco1 [MLS000768482]
Solution: Yes

Exercise: Threshold query (pIC50 >= 5) on COc1ccc(Cl)cc1NC(=O)CCS(=O)(=O)c1ccc(Br)cc1 [MLS001202289]
Solution: No

Exercise: Threshold query (pIC50 >= 5) on COc1cc2c(ccc3cc(OC)c(OC)c(O)c32)cc1O [MLS000863573]
Solution: Yes

Exercise: Threshold query (pIC50 >= 5) on CC(=O)[C@]1(O)Cc2c(O)c3c(c(O)c2[C@@H](O[C@H]2C[C@H](N)[C@H](O)[C@H](C)O2)C1)C(=O)c1ccccc1C3=O [NCGC00093976]
Solution: No

Exercise: Threshold query (pIC50 >= 5) on COc1ccc(CN2C(=O)NC(=O)/C(=C\c3ccco3)C2=O)cc1 [MLS000723827]
Solution: No
